Data credit: patent US10647679B2

Target or test system: recombinant rat GluN1/GluN2C (Rattus norvegicus, UniProt P35439+Q00961)
Construct: expressed in transfected cells; host or cells: Xenopus laevis oocytes (Ecocyte) injected with in vitro transcribed cRNA
Sequence (Q00961 20-1237, other chains not shown): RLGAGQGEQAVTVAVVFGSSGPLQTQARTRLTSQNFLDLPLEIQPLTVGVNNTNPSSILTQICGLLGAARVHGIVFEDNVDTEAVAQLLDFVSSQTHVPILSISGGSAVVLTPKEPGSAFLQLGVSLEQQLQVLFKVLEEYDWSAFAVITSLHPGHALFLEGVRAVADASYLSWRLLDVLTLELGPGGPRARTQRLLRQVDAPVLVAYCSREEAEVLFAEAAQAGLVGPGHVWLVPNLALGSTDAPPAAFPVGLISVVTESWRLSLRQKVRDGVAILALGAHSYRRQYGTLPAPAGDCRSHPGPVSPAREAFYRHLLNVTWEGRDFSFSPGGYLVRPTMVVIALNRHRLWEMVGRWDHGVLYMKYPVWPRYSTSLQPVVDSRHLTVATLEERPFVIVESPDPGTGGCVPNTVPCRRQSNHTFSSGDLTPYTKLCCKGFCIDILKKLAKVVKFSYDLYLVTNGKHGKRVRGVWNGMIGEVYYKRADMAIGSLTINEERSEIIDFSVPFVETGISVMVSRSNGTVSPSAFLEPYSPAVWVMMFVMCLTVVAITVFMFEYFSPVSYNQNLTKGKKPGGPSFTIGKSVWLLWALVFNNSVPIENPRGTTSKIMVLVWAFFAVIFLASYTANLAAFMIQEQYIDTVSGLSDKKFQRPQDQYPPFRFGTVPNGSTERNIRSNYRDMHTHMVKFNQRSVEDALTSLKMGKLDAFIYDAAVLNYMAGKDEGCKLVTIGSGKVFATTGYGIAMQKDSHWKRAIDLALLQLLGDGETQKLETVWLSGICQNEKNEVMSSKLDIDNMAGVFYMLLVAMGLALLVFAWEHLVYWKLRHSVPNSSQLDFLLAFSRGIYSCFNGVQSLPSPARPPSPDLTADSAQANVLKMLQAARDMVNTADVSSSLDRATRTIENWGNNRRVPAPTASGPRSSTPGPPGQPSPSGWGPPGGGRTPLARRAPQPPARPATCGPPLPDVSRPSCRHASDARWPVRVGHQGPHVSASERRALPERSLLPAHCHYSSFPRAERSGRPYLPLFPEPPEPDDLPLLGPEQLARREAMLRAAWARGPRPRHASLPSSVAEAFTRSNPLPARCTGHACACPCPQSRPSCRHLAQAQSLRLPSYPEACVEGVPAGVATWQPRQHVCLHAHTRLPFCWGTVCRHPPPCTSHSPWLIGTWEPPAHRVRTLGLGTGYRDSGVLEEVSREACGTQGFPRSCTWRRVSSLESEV
Test details: Two-electrode voltage-clamp (TEVC) recordings in Xenopus laevis oocytes, GluN1/GluN2C
Format: cell-based
Recorded conditions: percentage of the initial glutamate (100 μM) and glycine (30 μM) current; read-out: EC50 (max.) (μM %) GluN2C: fitted maximum response
Method: Data are from between 3-26 oocytes from 2-5 frogs for each compound and receptor tested. Two-electrode voltage-clamp recordings were performed in Xenopus laevis oocytes (Ecocyte) expressing recombinant rat GluN1/GluN2A, GluN1/GluN2B, GluN1/GluN2C, GluN1/GluN2D. cRNA was transcribed in vitro (Ambion), diluted with nuclease free water, and injected at a ratio of 1:2 GluN1:GluN2 (5-10 ng total cRNA). […]
Measured quantity: Emax (%)

compound="COc1ccc(OC[C@@H]2c3ccc(OC(C)C)cc3CCN2C(=O)c2cccc(Cl)c2)cc1 [(S)-(−)-1180-55]" measured_result=360
compound="COc1ccc(OC[C@H]2c3ccc(OC(C)C)cc3CCN2C(=O)c2cccc(Cl)c2)cc1 [(R)-(+)-1180-55]" measured_result=342
compound="COc1ccc(OC[C@@H]2c3ccc(OC(C)C)cc3CCN2C(=S)c2cccc(Cl)c2)cc1 [(S)-(−)-1180-163]" measured_result=316
compound="CCOc1ccc(OC[C@@H]2c3ccc(OC(C)C)cc3CCN2C(=O)c2cccc(C(F)(F)F)c2)cc1 [(S)-(−)-1180-92]" measured_result=141
compound="CCOc1ccc(OC[C@H]2c3ccc(OC(C)C)cc3CCN2C(=S)c2cccc(C(F)(F)F)c2)cc1 [(R)-(+)-1180-168]" measured_result=182
compound="CCOc1ccc(OCC2c3ccc(OC(C)C)cc3CCN2C(=O)c2ccc(Cl)c(Cl)c2)cc1 (centres unmarked)" measured_result=139
compound="COc1ccc(OC[C@H]2c3ccc(OC(C)C)cc3CCN2C(=S)c2cccc(Cl)c2)cc1 [(R)-(+)-1180-163]" measured_result=252
compound="CCOc1ccc(OCC2c3ccc(OC(C)C)cc3CCN2C(=S)c2cccc(C(F)(F)F)c2)cc1 (centres unmarked)" measured_result=141
compound="CCOc1ccc(OC[C@@H]2c3ccc(OC(C)C)cc3CCN2C(=S)c2cccc(F)c2)cc1 [(S)-(−)-1180-154]" measured_result=163
compound="CCOc1ccc(OC[C@@H]2c3ccc(OC(C)C)cc3CCN2C(=O)c2cccc(F)c2)cc1 [(S)-(−)-1180-87]" measured_result=132
compound="COc1ccc(OCC2c3ccc(OC(C)C)cc3CCN2C(=O)c2cccc(Cl)c2)cc1 (centres unmarked)" measured_result=250
